test: Test 1: solubility of Edaravone in various aqueous solubilizer solutions (saturated solution at 4° C., HPLC); assay type: physicochemical; conditions: 50 v/v % N,N-dimethylacetamide in water, aqueous with cosolvent or surfactant or cyclodextrin, thermodynamic from solid; in 50 v/v % N,N-Dimethylacetamide, 4° C.
observed property: solubility (mg/mL)
Give your result in mg/mL as a bare value.

Per the record, CC1=NN(c2ccccc2)C(=O)C1 has solubility of 20

----------
Assay: Test 1: solubility of Edaravone in various aqueous solubilizer solutions (saturated solution at 4° C., HPLC)
Assay type: physicochemical
Settings: 50 v/v % ethanol in water, aqueous with cosolvent or surfactant or cyclodextrin, thermodynamic from solid; in 50 v/v % Ethanol, 4° C.
Procedure: Water for injection (5 mL) was added to 5 mL of each of ethanol, propylene glycol, polyethylene glycol 400 and N,N-dimethylacetamide widely used as a solubilizer for an intravenous injection, followed by stirring. […] Then, the solution was quickly filtered through a membrane filter (pore size: 0.45 μm) kept at 4° C. and the amount of Edaravone contained in the filtrate was measured by HPLC method as explained below. […]
observed property: solubility (µg/mL)
Give your result in µg/mL as a bare value.

Per the record, CC1=NN(c2ccccc2)C(=O)C1 has solubility of 10000
